- Test system: CD2F1 mice, L1210 leukemia ip, survival T/C
- assay: NCI In Vivo Anticancer Drug Screen. Data for tumor model L1210 Leukemia (intraperitoneal) in CD2F1 (CDF1) mice
- condition-label: endpoint: mean survival time; dose: 100.0 mg/kg/injection; schedule: Q01DX001 (ip); vehicle: saline with Tween-80; higher = longer survival
Inconclusive results and toxic doses are left out.
readout-type: T/C

Some solved entries appear below for comparison.
OC(c1ccccc1)(c1ccccc1)C1c2ccccc2-c2[nH]c3ccccc3c21 (configuration not stated)    89 % of control
O=C1C2CCN(CC2)C1COc1cccc2ccccc12 (configuration not stated)    106 % of control
C1CCC(N(C2CCCCC2)C2CCCCC2)CC1    107 % of control
O=C(NCCS)Nc1ccccc1    102 % of control
CN(C(=O)CCC(=O)N(C)c1ccccc1)c1ccccc1    103 % of control
OC(c1ccc(Cl)cc1)c1ccc(Cl)cc1    105 % of control
CC(C)(C)OOC(=O)Nc1ccc(Cl)cc1    88 % of control
O=C(/C=C/C(=O)c1ccccc1)c1ccccc1    94 % of control
COc1ccccc1N=Nc1c(O)n(-c2ccccc2OC)c(=S)n(-c2ccc(Cl)cc2)c1=O    90 % of control
CN1NC(c2ccc(Cl)cc2)C2CN(C3CCCCC3)C(=O)C21O (configuration not stated)    100 % of control

Recorded T/C for CC(C)C(C)CCC(C)C1CCC2C3CC=C4CC(O)CCC4(C)C3CCC12C (configuration not stated) , please?
97 % of control

Recorded T/C for COc1ccc2nc3c(Cl)cccc3c(Oc3ccccc3)c2c1 , please?
94 % of control

====

# T/C annotations
- System: CD2F1 mice, L1210 leukemia ip, survival T/C
- assay: NCI In Vivo Anticancer Drug Screen. Data for tumor model L1210 Leukemia (intraperitoneal) in CD2F1 (CDF1) mice
- condition-label: endpoint: mean survival time; dose: 100.0 mg/kg/injection; schedule: Q04DX003 (ip); vehicle: saline; higher = longer survival
Toxic doses and inconclusive results are not listed.

Recorded T/C for CCC/C=C\CC(C)C(C)CC (stereo unspecified) , please?
101 % of control

Recorded T/C for NCc1cccc([N+](=O)[O-])c1 , please?
106 % of control

Recorded T/C for COC1OC2COC(C)(c3ccccc3)OC2C(O)C1[NH-].COC1OC2COC(C)(c3ccccc3)OC2C(O)C1[NH-].[Cl][Pt+2][Cl] (stereo unspecified) , please?
95 % of control

Recorded T/C for O=C(O)/C=C(/CC(=O)O)C(=O)O , please?
98 % of control

Recorded T/C for O=C1CCCC2C1CCCC21OCCO1 (stereo unspecified) , please?
102 % of control

Recorded T/C for CC(C#N)(Nc1ccccc1)c1ccco1 (stereo unspecified) , please?
103 % of control

====

- Test system: CD2F1 mice, L1210 leukemia ip, survival T/C
- assay: NCI In Vivo Anticancer Drug Screen. Data for tumor model L1210 Leukemia (intraperitoneal) in CD2F1 (CDF1) mice
- condition-label: endpoint: mean survival time; dose: 50.0 mg/kg/injection; schedule: Q01DX009 (ip); vehicle: saline; higher = longer survival
Toxic doses and inconclusive results are not listed.
# T/C annotations

Some solved entries appear below for comparison.
CCN(CC)CCOC(=O)C(c1ccccc1)C(C)(O)CC (stereo not drawn)    87 % of control
CCOC(=O)C(Br)C(Br)c1ccccc1 (stereo not drawn)    108 % of control
CC(=O)NCCCCCCNC(C)=O    100 % of control
c1ccc2c(CC[n+]3cccc(C4OCCO4)c3)c[nH]c2c1    100 % of control
CC1C2CCC(C2)C1CO (stereo not drawn)    102 % of control
C=CC[As](=O)(O)CCC    98 % of control
CNc1nc(N(C)C)nc(N(C)C)n1    101 % of control
OCC#CCO    104 % of control

Recorded T/C for O=S(=O)(O)c1ccc(-c2ccc(S(=O)(=O)O)cc2)cc1 , please?
104 % of control

Recorded T/C for COc1cc2cc[n+]3c(C)c4cc5c(cc4cc3c2cc1OC)OCO5 (tested in a mixture with another compound) , please?
106 % of control

Recorded T/C for CC1C2CCC(C2)C1N (stereo not drawn) , please?
99 % of control

Recorded T/C for COc1cc(NCC(C)(O)CN2CCCC(C)C2C)c2ncccc2c1 (stereo not drawn) , please?
102 % of control

Recorded T/C for NC(CCC(=O)NCc1ccc(S(=O)(=O)F)cc1)C(=O)O (stereo not drawn) , please?
92 % of control

====

- Tested on: CD2F1 mice, L1210 leukemia ip, survival T/C
- assay: NCI In Vivo Anticancer Drug Screen. Data for tumor model L1210 Leukemia (intraperitoneal) in CD2F1 (CDF1) mice
- condition-label: endpoint: mean survival time; dose: 75.0 mg/kg/injection; schedule: Q01DX009 (ip); vehicle: saline with Tween-80; higher = longer survival
Inconclusive results and toxic doses are left out.
readout-type: T/C

Nc1ccc([N+](=O)[O-])cn1    94 % of control
C[n+]1cccc(C(=O)NCCc2c[nH]c3ccccc23)c1    97 % of control
CCOC(=O)/C(C#N)=C(\C)c1ccccc1    97 % of control
CCCCCC[Si]    94 % of control

Please turn your attention to the following entry.
Recorded T/C for CCOC(=O)N1Cc2cc3ccccc3nc2C1 , please?
100 % of control

====

- Tested on: CD2F1 mice, L1210 leukemia ip, survival T/C
- assay: NCI In Vivo Anticancer Drug Screen. Data for tumor model L1210 Leukemia (intraperitoneal) in CD2F1 (CDF1) mice
- condition-label: endpoint: mean survival time; dose: 400.0 mg/kg/injection; schedule: Q01DX001 (ip); vehicle: Klucel (hydroxypropylcellulose) (HPC); higher = longer survival
Inconclusive results and toxic doses are left out.
readout-type: T/C

Some solved entries appear below for comparison.
CCCCCC(Br)C(Br)CC(Br)C(Br)CC(Br)C(Br)CCCCC(=O)O (centres undefined)    107 % of control
O=C(O)c1ccccc1SCCO    104 % of control

Recorded T/C for O=[N+]([O-])c1ccc(/C=C/C=C/C2(CCl)OCCO2)cc1 , please?
100 % of control

Recorded T/C for C=CCOc1ccc(Cl)cc1 , please?
100 % of control

====

- System: CD2F1 mice, L1210 leukemia ip, survival T/C
- assay: NCI In Vivo Anticancer Drug Screen. Data for tumor model L1210 Leukemia (intraperitoneal) in CD2F1 (CDF1) mice
- condition-label: endpoint: mean survival time; dose: 25.0 mg/kg/injection; schedule: Q04DX002 (ip); vehicle: saline; higher = longer survival
Inconclusive results and toxic doses are left out.
# T/C annotations

Some solved entries appear below for comparison.
C1CSC(=[N+]2CC[N+](=C3SCCS3)CC2)S1    100 % of control
CC[N+](C)(CC)Cc1cc(C(C)=O)c(C)o1    102 % of control
CNNC(=O)OC    95 % of control
C[N+](C)(C)CCCNC(=O)Nc1ccc(Cl)cc1    100 % of control
CN(C)c1cc(C(C)(C)C)nc(C(C)(C)C)c1    118 % of control

Please turn your attention to the following entry.
Recorded T/C for CC1(C)SC2C(NC(=O)Cc3ccccc3)C(=O)N2C1C(=O)O (stereo unspecified) , please?
97 % of control

====

- System: CD2F1 mice, L1210 leukemia ip, survival T/C
- assay: NCI In Vivo Anticancer Drug Screen. Data for tumor model L1210 Leukemia (intraperitoneal) in CD2F1 (CDF1) mice
- condition-label: endpoint: mean survival time; dose: 400.0 mg/kg/injection; schedule: Q01DX001 (ip); vehicle: saline with Tween-80; higher = longer survival
- Method: The antitumor activity of compounds was measured in mice bearing transplantable tumors. Survival or tumor size were measured and the results are expressed as the measurement made in the treated group (T) divided by the measurement made in the vehicle treated control group (C). The tumor model used in this assay is L1210 Leukemia (intraperitoneal) in CD2F1 (CDF1) mice
Toxic doses and inconclusive results are not listed.
readout-type: T/C

Some solved entries appear below for comparison.
Cc1ccc(S(=O)(=O)Nc2ccc(Cl)c(Cl)c2)cc1    103 % of control
Cc1ccc(NC(=O)Nc2cccc(-n3cnc4c(=O)[nH]c(N)nc43)c2)cc1S(=O)(=O)F    89 % of control
c1ccc(C2COCC2c2ccccc2)cc1 (stereo unspecified)    93 % of control
CCOC(=O)Cc1ccncc1CC    100 % of control
O=C(Cc1cccc([N+](=O)[O-])c1)Nc1cccc(S(=O)(=O)F)c1    96 % of control

Request - read-out T/C | tested on CD2F1 mice, L1210 leukemia ip, survival T/C | compound C1C2OC2CC2OC12 (stereo unspecified)
98 % of control
